test system: 521955-158-R2-J5-PDC complex spheroid viability; assay: Anticancer human tumor 521955-158-R2-J5-PDC patient-derived pancreatic carcinoma cell line growth inhibition [GQUAD]; settings: second compound 0.316 µM; first compound 0.00316 µM; hits give low values;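 note: spheroids exposed to agents for one week before reading; 100% = DMSO vehicle control viability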
The entries below are paired with their reported viability, T/C.
experimental endpoint: viability, T/C

1. Cn1ncnc1[C@H]1c2n[nH]c(=O)c3cc(F)cc(c23)N[C@@H]1c1ccc(F)cc1 + CN(C)c1ccc(Nc2c3ccc(NC(=O)CCN4CCCC4)cc3nc3cc(NC(=O)CCN4CCCC4)ccc23)cc1; 95.7%
2. CC[C@@]1(O)C(=O)OCc2c1cc1n(c2=O)Cc2cc3c(CN(C)C)c(O)ccc3nc2-1 + CN(C)c1ccc(Nc2c3ccc(NC(=O)CCN4CCCC4)cc3nc3cc(NC(=O)CCN4CCCC4)ccc23)cc1; 98.5%
3. Cn1ncnc1[C@H]1c2n[nH]c(=O)c3cc(F)cc(c23)N[C@@H]1c1ccc(F)cc1 + Cc1cnc(CNC(=O)c2c(=O)c3ccc(N4CCCN(C)CC4)nc3n3c2sc2ccccc23)cn1; 48.6%
4. CCc1c2c(nc3ccc(O)cc13)-c1cc3c(c(=O)n1C2)COC(=O)[C@]3(O)CC + Cc1cnc(CNC(=O)c2c(=O)c3ccc(N4CCCN(C)CC4)nc3n3c2sc2ccccc23)cn1; 15.8%
5. Cn1ncnc1[C@H]1c2n[nH]c(=O)c3cc(F)cc(c23)N[C@@H]1c1ccc(F)cc1 + Cc1[nH]c2ccc(F)cc2c1-c1nc2c3cccnc3c3ncccc3c2[nH]1; 96%

The origin of these recorded values is PubChem BioAssay AID2060495.
